- Assayed Target: human recombinant full-length fatty acid synthase (FASN) (Homo sapiens)
- Construct: 40 nM human recombinant full-length fatty acid synthase (produced in-house in SF9 cells)
- Sequence (P49327 whole entry): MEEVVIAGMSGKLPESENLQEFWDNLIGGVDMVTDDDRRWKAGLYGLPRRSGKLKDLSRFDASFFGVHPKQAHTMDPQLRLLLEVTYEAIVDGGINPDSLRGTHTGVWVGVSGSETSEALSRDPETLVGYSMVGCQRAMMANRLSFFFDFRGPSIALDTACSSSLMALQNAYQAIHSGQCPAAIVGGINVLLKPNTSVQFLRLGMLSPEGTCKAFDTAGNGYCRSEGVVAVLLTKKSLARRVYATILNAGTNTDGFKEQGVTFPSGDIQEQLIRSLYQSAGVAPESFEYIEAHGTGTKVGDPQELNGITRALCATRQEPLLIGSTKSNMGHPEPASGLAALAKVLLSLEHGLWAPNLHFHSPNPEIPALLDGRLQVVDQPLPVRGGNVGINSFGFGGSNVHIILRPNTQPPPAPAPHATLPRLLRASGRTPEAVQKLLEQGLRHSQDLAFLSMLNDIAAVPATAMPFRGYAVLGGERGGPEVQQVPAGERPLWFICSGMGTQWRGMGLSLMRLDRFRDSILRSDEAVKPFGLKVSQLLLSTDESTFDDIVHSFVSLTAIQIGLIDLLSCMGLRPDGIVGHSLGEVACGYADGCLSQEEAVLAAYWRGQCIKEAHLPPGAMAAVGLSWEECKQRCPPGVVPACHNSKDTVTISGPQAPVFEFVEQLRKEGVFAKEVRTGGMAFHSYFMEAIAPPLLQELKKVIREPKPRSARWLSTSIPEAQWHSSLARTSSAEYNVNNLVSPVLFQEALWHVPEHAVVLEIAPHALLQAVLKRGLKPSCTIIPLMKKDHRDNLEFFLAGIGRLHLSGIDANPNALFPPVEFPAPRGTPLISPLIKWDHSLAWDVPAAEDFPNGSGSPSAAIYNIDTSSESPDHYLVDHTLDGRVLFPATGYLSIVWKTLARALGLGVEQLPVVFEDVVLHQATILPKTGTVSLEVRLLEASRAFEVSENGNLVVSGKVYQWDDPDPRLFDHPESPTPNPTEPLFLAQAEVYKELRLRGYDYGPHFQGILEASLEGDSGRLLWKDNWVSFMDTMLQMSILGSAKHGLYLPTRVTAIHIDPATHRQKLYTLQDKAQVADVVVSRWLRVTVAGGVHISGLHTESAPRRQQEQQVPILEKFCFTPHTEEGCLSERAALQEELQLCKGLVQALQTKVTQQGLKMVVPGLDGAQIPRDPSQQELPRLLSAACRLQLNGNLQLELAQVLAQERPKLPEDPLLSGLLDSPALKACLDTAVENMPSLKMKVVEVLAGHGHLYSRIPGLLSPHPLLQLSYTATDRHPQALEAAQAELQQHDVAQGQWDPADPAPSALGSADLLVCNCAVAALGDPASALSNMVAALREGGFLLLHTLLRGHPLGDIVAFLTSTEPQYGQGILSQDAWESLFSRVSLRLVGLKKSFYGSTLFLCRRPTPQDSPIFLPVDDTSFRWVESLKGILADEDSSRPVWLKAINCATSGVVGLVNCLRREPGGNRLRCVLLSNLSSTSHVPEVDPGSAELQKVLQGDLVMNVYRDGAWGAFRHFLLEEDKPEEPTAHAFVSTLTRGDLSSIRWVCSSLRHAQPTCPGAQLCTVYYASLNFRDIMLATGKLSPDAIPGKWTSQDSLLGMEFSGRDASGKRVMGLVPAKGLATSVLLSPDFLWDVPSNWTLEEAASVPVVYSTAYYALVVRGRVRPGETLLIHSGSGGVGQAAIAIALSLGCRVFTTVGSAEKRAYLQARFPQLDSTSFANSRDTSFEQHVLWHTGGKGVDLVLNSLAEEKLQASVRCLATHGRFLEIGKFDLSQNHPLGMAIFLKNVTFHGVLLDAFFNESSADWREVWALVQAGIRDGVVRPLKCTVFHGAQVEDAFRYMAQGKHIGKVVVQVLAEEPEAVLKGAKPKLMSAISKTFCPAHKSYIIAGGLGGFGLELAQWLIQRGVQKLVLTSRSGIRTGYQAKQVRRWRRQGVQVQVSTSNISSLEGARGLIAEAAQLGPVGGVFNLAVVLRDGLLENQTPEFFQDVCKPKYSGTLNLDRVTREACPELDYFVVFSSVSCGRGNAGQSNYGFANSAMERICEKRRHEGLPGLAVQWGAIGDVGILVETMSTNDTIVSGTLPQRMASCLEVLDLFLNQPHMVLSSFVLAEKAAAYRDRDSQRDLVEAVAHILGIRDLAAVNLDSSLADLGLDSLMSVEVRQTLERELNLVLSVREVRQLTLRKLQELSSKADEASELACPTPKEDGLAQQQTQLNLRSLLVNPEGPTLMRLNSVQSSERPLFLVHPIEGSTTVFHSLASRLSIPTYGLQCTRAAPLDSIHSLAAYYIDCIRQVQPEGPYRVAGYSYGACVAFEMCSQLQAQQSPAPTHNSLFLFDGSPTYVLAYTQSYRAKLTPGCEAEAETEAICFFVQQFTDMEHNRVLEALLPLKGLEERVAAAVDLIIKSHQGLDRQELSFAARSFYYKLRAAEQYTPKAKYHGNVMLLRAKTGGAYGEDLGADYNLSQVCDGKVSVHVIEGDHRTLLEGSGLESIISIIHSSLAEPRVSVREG
- Experimental Details: Biochemical activity testing of human fatty acid synthase FASN (NADPH fluorescence intensity enzyme assay)
- Experimental Context: inhibition of NADPH conversion
Quantity Measured: IC50

Illustrative cases are given below, each with its answer.
[
  {
    "Molecule": "O=C(c1ccc(-c2ccc3cc[nH]c3c2)cc1)N1CC2CN(C(=O)C3CC3)CC2C1 (stereo not drawn)",
    "Assayed Target": "human recombinant full-length fatty acid synthase (FASN) (Homo sapiens)",
    "IC50": "0.3 to 3 µM"
  },
  {
    "Molecule": "O=C(c1ccc(-c2ccc3cnccc3c2)cc1)N1CC2CN(C(=O)C3CC3)CC2C1 (stereo not drawn)",
    "Assayed Target": "human recombinant full-length fatty acid synthase (FASN) (Homo sapiens)",
    "IC50": "0.3 to 3 µM"
  },
  {
    "Molecule": "CC(=O)N1CC2CN(C(=O)c3ccc(-c4ccc5ccoc5c4)cc3)CC2C1 (stereo not drawn)",
    "Assayed Target": "human recombinant full-length fatty acid synthase (FASN) (Homo sapiens)",
    "IC50": "3 to 50 µM"
  }
]

Please look up its IC50: CCC(=O)N1CC2CN(C(=O)c3ccc(-c4ccc5cnccc5c4)cc3)CC2C1 (stereo not drawn)
< 0.3 µM

Please look up its IC50: CCC(=O)N1CC2CN(C(=O)c3ccc(-c4ccc5cc[nH]c5c4)cc3)CC2C1 (stereo not drawn)
0.3 to 3 µM

Please look up its IC50: CCC(=O)N1CC2CN(C(=O)c3ccc(-c4ccc5ccoc5c4)cc3)CC2C1 (stereo not drawn)
0.3 to 3 µM
